Origin of measurements: ChEMBL document CHEMBL1938272

system: RAW264.7; assay: Antiinflammatory activity in mouse RAW264.7 cells assessed as inhibition of LPS-induced NO production at 40 uM preincubated for 30 mins before LPS challenge by Griess method
# reported inhibition at 40 µM; entries follow

smiles-data: Cc1ccc(-c2nsc(-c3ccc(C)cc3Br)n2)c(Br)c1
inhibition at 40 µM, %: 25

smiles-data: Clc1cccc(-c2nsc(-c3cccc(Cl)c3Cl)n2)c1Cl
inhibition at 40 µM, %: 21.4

smiles-data: Cc1ccc(-c2nsc(-c3ccc(C)cc3)n2)cc1
inhibition at 40 µM, %: 9.6

smiles-data: Oc1cccc(-c2nsc(-c3cccc(O)c3)n2)c1
inhibition at 40 µM, %: 47.4

smiles-data: Clc1ccc(Cl)c(-c2nsc(-c3cc(Cl)ccc3Cl)n2)c1
inhibition at 40 µM, %: 17.9

smiles-data: Clc1ccc(-c2nsc(-c3ccc(Cl)c(Cl)c3)n2)cc1Cl
inhibition at 40 µM, %: 21.5

smiles-data: Cc1cc(Cl)ccc1-c1nsc(-c2ccc(Cl)cc2C)n1
inhibition at 40 µM, %: 10.1

smiles-data: c1ccc2cc(-c3nsc(-c4ccc5ccccc5c4)n3)ccc2c1
inhibition at 40 µM, %: 0.5

smiles-data: CC(C)(C)c1ccc(-c2nsc(-c3ccc(C(C)(C)C)cc3)n2)cc1
inhibition at 40 µM, %: 0.5

smiles-data: Brc1cccc(-c2nsc(-c3cccc(Br)c3)n2)c1
inhibition at 40 µM, %: 22.8

smiles-data: COc1ccc(-c2nsc(-c3ccc(OC)cc3)n2)cc1
inhibition at 40 µM, %: 1.7

smiles-data: Fc1ccc(-c2nsc(-c3ccc(F)cc3)n2)cc1
inhibition at 40 µM, %: 22.2

---

target: Aromatase (Homo sapiens); settings: 2 h, read-out: Imax
Sequence (P11511 whole entry): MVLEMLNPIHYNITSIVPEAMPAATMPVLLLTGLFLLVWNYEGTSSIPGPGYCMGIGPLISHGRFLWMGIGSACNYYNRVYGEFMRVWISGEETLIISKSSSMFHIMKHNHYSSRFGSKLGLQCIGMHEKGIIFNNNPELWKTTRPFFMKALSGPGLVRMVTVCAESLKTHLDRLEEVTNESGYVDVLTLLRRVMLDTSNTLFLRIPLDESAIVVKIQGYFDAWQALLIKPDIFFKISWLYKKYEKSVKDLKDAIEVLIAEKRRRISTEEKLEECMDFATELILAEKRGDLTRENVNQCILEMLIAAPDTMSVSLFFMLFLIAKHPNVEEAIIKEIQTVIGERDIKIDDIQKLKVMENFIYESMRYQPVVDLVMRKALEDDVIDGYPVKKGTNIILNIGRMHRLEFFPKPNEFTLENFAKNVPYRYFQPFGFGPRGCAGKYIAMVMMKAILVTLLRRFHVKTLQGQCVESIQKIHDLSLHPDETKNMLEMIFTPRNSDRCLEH
I would appreciate it if you labelled entries True when inhibition at 50 µM is 40% or higher, otherwise False.

compound: Brc1ccccc1-c1nsc(-c2ccccc2Br)n1
system: Aromatase (Homo sapiens)
assigned-label: True
--
compound: c1ccc2cc(-c3nsc(-c4ccc5ccccc5c4)n3)ccc2c1
system: Aromatase (Homo sapiens)
assigned-label: False
--
compound: Cc1cc(Cl)ccc1-c1nsc(-c2ccc(Cl)cc2C)n1
system: Aromatase (Homo sapiens)
assigned-label: False
--
compound: Brc1cccc(-c2nsc(-c3cccc(Br)c3)n2)c1
system: Aromatase (Homo sapiens)
assigned-label: True
--
compound: Fc1ccc(-c2nsc(-c3ccc(F)cc3)n2)cc1
system: Aromatase (Homo sapiens)
assigned-label: True
--
compound: Oc1ccc(CCc2cc(O)cc(O)c2)cc1 [DIHYDRORESVERATROL]
system: Aromatase (Homo sapiens)
assigned-label: False
